Consider the following Ki values measured on UniProt P00734.
Form entry: value (nM) — number only.

Recorded Ki, per entry:
• O=S(=O)(Nc1cccc(OCCNc2ccncc2)c1)c1ccccc1 = 316
• Cc1ccc(S(=O)(=O)N(c2cccc(OCCN(C(=O)OC(C)(C)C)c3ccncc3)c2)S(=O)(=O)c2ccc(C)cc2)cc1 = 30700
• O=S(=O)(Nc1cccc(OCCNc2ccncc2)c1)c1ccc(F)cc1 = 316
• Cc1cc(OCCNc2ccncc2)cc(OS(=O)(=O)c2cccs2)c1 = 5
• Cc1cc(NS(=O)(=O)c2ccccc2)cc(OCCNc2ccncc2)c1 = 25
• COc1ccccc1S(=O)(=O)N(CC(N)=O)c1cc(C)cc(OCCNc2ccncc2)c1 = 4

Read the next record carefully.
Q. Provide measured Ki value, entry: CN(CCOc1cccc(N(C)S(=O)(=O)c2ccccc2)c1)c1ccncc1
A. 631
